Where do these numbers come from? They come from patent US4603217A.

Test system: ultraviolet erythema
Experiment: inhibition action for ultraviolet erythema
Format: in vivo, male Hartley guinea pigs
Settings: 10 mg/kg orally, 3 hs after irradiation, guinea pigs
result-type: 3 hs after the irradiation, Average ± standard error

Query string: Output 3 hs after the irradiation, Average ± standard error of O=C(O)Cc1ccccc1Nc1c(Cl)cccc1Cl [DF, diclofenac, reference compound]
Result string: 2.50 ± 0.342

Query string: Output 3 hs after the irradiation, Average ± standard error of COc1ccc2c(c1)c(CC(=O)OCOC(=O)C=C(C)C)c(C)n2C(=O)c1ccc(Cl)cc1
Result string: 0.83 ± 0.241

Query string: Output 3 hs after the irradiation, Average ± standard error of C/C=C/C(=O)OCOC(=O)Cc1c(C)n(C(=O)c2ccc(Cl)cc2)c2ccc(OC)cc12
Result string: 1.58 ± 0.288

Query string: Output 3 hs after the irradiation, Average ± standard error of COc1ccc2c(c1)c(CC(=O)OCCOC(C)=O)c(C)n2C(=O)c1ccc(Cl)cc1
Result string: 2.3 ± 0.211
